Molecular target: T1, recombinant human CEACAM5 (human, UniProt P06731 35-685, limits assumed)
T1 construct: Immobilised by amine coupling on a CM5 chip
T1 sequence (looked up): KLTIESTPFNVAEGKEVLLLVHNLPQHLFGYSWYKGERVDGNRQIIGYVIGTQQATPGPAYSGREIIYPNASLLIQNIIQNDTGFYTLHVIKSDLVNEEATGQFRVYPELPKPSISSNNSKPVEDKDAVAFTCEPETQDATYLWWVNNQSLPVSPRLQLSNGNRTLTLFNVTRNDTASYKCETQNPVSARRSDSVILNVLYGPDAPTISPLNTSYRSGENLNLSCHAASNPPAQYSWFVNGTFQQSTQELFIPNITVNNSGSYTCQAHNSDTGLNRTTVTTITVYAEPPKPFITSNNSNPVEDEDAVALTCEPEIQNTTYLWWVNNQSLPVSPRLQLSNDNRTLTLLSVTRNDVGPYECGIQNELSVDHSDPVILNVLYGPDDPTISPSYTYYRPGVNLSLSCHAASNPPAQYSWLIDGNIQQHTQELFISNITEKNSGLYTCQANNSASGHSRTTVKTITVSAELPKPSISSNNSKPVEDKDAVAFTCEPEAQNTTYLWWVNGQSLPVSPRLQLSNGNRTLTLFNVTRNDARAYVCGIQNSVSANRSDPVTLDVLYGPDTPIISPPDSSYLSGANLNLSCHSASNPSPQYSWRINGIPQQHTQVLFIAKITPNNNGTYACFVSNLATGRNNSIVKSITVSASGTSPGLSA
Test: SPR on CEACAM5 (Example 2; method not restated, as Example 1)
property-measured: koff
Mention the unit after the number when you answer.

T039400047 (VHH, Single lysine at 64; also called HIS6-ENLYFQS-5GS-A0315007E07(K43R, K75R)) VHH: EVQLVESGGGVVQPGGSLRLSCAASGLTFSTYTMGWFRQAPGREREFVAAIIWSGSNTYYADSVKGRFTISRDNARNTVYLQMNSLRPEDTALYYCAAQHFGPIGLTTRGYHYWGQGTLVTVSS
0.000451 s⁻¹
T039400052 (VHH, Single lysine at 73; also called HIS6-ENLYFQS-5GS-A0315007E07K43R, K64R, N73K, K75R) VHH: EVQLVESGGGVVQPGGSLRLSCAASGLTFSTYTMGWFRQAPGREREFVAAIIWSGSNTYYADSVRGRFTISRDKARNTVYLQMNSLRPEDTALYYCAAQHFGPIGLTTRGYHYWGQGTLVTVSS
0.000633 s⁻¹
T039400050 (VHH, No lysine; also called HIS6-ENLYFQS-5GS-A0315007E07(K43R, K64R, K75R)) VHH: EVQLVESGGGVVQPGGSLRLSCAASGLTFSTYTMGWFRQAPGREREFVAAIIWSGSNTYYADSVRGRFTISRDNARNTVYLQMNSLRPEDTALYYCAAQHFGPIGLTTRGYHYWGQGTLVTVSS
0.000526 s⁻¹

Query binder follows.
Exercise: Kindly indicate its recorded koff. Item: T039400054 (VHH, Single lysine at the C-terminus; also called HIS6-ENLYFQS-5GS-A0315007E07(K43R, K64R, K75R,)-K) VHH: EVQLVESGGGVVQPGGSLRLSCAASGLTFSTYTMGWFRQAPGREREFVAAIIWSGSNTYYADSVRGRFTISRDNARNTVYLQMNSLRPEDTALYYCAAQHFGPIGLTTRGYHYWGQGTLVTVSS
Solution: 0.000526 s⁻¹
